- testedSystem: T1, HLA-A*0201 molecule expressed on human T2 cells (human)
- T1 construct: surface HLA-A2 detected with anti-HLA-A2-PE (clone REA517); also called HLA-A2
- measurementNotes: T2 cell HLA-A*0201 binding assay, anti-HLA-A2-PE flow cytometry
assayMetric: concentration of peptide that induces 20% of HLA-A2 expression (µM)
One number for each entry, in µM.

Study these solved cases before continuing.
binder: SLDQKLFQL [ANKRD30A-H3]
valueObserved: 0.32
//
binder: ALIFGQLLL (also called ENT205_B1; ENT_205-B1) [TOP2A-B2]
valueObserved: 1.79
//
binder: IVWSDVTYV (also called ENT187_B1) [MMP11-B1]
valueObserved: 0.08

Go through the items and report each one's concentration of peptide that induces 20% of HLA-A2 expression.
1. TLDQKLFMV (also called ENT180_B1) [ANKRD30A-B3]
2. YLSGANLFV (also called CEACAM-B1; ENT188_B1) [CEACAM5-B1]
3. ALYDVRTIL (also called ENT168-H) [UBE2C-H1]

1: 0.14; 2: 0.5; 3: 15

Go through the items and report each one's concentration of peptide that induces 20% of HLA-A2 expression.
1. LILDTVHSL (also called ENT174_B1) [ANKRD30A-B2]
2. YLQQELMNL (also called ENT178_B1) [UBE2C-B3]
3. YLILEYAPL [AURKA-H1]
4. AINPELLQL (also called ENT207-H) [KIF2C-H1]

1: 1.13; 2: 0.14; 3: 12.2; 4: 22.6
